test system: breast cancer cell line MCF-7; test: MCF-7 cell growth study (celltiter-glo luminescent viability assay); format: cell-based, human; conditions: Homo sapiens, MCF7, 144 h, MCF-7 cells, 6 days incubation; read-out: IC50 (nM), cell growth inhibition;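 further: viability read by luminescence after compound exposure, relative to DMSO vehicle-treated wells on the same plate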
# Met = IC50 below 1 nM (exclusive); Not met = IC50 at/above 1 nM

Worked set:
- molecule: "C[C@@H]1Cc2c([nH]c3ccccc23)[C@@H](c2c(Cl)cc(/C=C/C(=O)O)cc2Cl)N1CC(C)(F)F"
  measuredOn: "breast cancer cell line MCF-7"
  discreteLabel: "Met"
- molecule: "C[C@@H]1Cc2c([nH]c3ccccc23)[C@@H](c2c(F)cc(OCCN3CC(CF)C3)cc2Cl)N1CC(C)(F)F"
  measuredOn: "breast cancer cell line MCF-7"
  discreteLabel: "Met"
- molecule: "CC1Cc2c(sc3ccccc23)C(c2c(F)cc(/C=C/C(=O)O)cc2F)N1CC(C)(C)F (stereo not drawn) [Compound 48A]"
  measuredOn: "breast cancer cell line MCF-7"
  discreteLabel: "Not met"
- molecule: "CC1Cc2c([nH]c3cc(F)ccc23)C(c2c(F)cc(/C=C/C(=O)O)cc2F)N1CC(C)(F)F (stereo not drawn) [Compound 35A]"
  measuredOn: "breast cancer cell line MCF-7"
  discreteLabel: "Not met"
- molecule: "CC1Cc2c([nH]c3ccc(F)cc23)C(c2c(F)cc(/C=C/C(=O)O)cc2F)N1CC(C)(F)F (stereo not drawn) [Compound 33A]"
  measuredOn: "breast cancer cell line MCF-7"
  discreteLabel: "Not met"

Task item: Determine whether this molecule shows IC50 lower than 1 nM (ties excluded): CC1Cc2c(oc3ccccc23)C(c2c(Cl)cc(OCCN3CC(CF)C3)cc2Cl)N1CC(C)(C)F (stereo not drawn)
Reply: Not met

Task item: Please let me know if `C[C@@H]1Cc2c([nH]c3ccccc23)[C@@H](c2c(F)cc(OCCN3CCCC3)cc2F)N1CC(C)(F)F` shows IC50 below 1 nM.
Reply: Met

====

assay: Human hepatocyte clearance study; assay type: in vitro ADME; details: human, pooled cryopreserved human hepatocytes (suspension); read-out: Human In vitro T1/2
Would you kindly list half-life at 1 µM for each of these compounds?
Give bare numbers, in h.

- compound: "C[C@]12CC[C@@H]3c4ccc(O)cc4C[C@@H](CCCCCCCCC[S+]([O-])CCCC(F)(F)C(F)(F)F)[C@H]3[C@@H]1CC[C@@H]2O (some centres unmarked) [Fulvestrant, reference compound]"
  parameter: "half-life at 1 µM"
  readoutNumber: 0.7

Record half-life at 1 µM for all entries; do not skip any.
1. CC/C(=C(/c1ccc(/C=C/C(=O)O)cc1)c1ccc2[nH]ncc2c1)c1ccc(F)cc1Cl [GDC-0810, reference compound]
2. C[C@@H]1Cc2c([nH]c3ccccc23)[C@@H](c2c(F)cc(OCCN3CC(CF)C3)cc2Cl)N1CC(C)(C)F [Compound 11]
3. C[C@@H]1Cc2c([nH]c3ccccc23)[C@@H](c2c(F)cc(/C=C/C(=O)O)cc2F)N1CC(C)(F)F [Compound 29]
4. C[C@@H]1Cc2c([nH]c3ccccc23)[C@@H](c2c(F)cc(/C=C/C(=O)O)cc2F)N1CC(C)(C)F [AZD9496, reference compound]

Reply:
1. 0.933
2. 11.1
3. 9.52
4. 2.55
